The reported numbers originate from patent US9504728B2.

Overview of recorded AUC(0-t) for various compounds
Experiment: in vivo
Conditions: male, mouse, iv; CD1 mice, whole blood, 1 mg/kg i.v.; read-out: AUClast after 1 mg/kg i.v. dose
Method: For sanglifehrins, whole blood is analysed. Compounds are formulated in 5% ethanol/5% cremophor EL/90% saline for both p.o. and i.v. administration. […] The concentration of the sanglifehrin or parent compound in the sample is determined via LCMS as follows: 20 μL of blood:H2O (1:1, v/v)/PK sample is added with 20 μL Internal standard (hydroxyl macrocycle, 6) at 100 ng/mL, 20 μL working solution/MeOH and 150 μL of ACN, vortexed for 1 minute at 1500 rpm, and centrifuged at 12000 rpm for 5 min. […]
measurement.type: AUC(0-t) (ng·h/mL)

>>> recorded_result("CCCC(=O)/C=C/C=C(\\C)[C@@H]1C/C=C/C=C/[C@H](O)[C@H](C)[C@@H](O)[C@@H](CCC(C)=O)C(=O)N[C@@H](C(C)C)C(=O)N[C@@H](Cc2cccc(O)c2)C(=O)N2CCCC(N2)C(=O)O1 (some centres unmarked)")
1660
>>> recorded_result("C/C(=C\\CO)[C@@H]1C/C=C/C=C/[C@@H]2OC3(C)CC[C@@H](C(=O)N[C@@H](C(C)C)C(=O)N[C@@H](Cc4cccc(O)c4)C(=O)N4CCCC(N4)C(=O)O1)[C@H](O3)[C@H]2C")
813
